target-or-test-system: human Mac-1 (integrin αMβ2, CD11b/CD18) (human, UniProt P11215 17-1152; P05107 23-769)
assay-text: flow cytometry, HEK293/Mac-1 cells, PBS (Mock), 10 µg/ml of this antibody; binding of reporter mAb KIM127 read
quantity-kind: KIM127 (Expression relative to IgG4)

anti-Mac-1 antibody clone 27A06 (antibody, human IgG4, V domains shown) VH: QVKLQQSGPELVTPGASVKISCKPSGYSFTDYNMNWVKQSNGKSLEWIGEINPNYGTTRHNQKFKGKASLTVDQSSSTAYMQLISLTSEDSAVYYCARTYDYDEDAFAYWGQGTTVTVSS VL: DIELTQSPAIMSASPGEKVTMTCSASSSVSYMHWYQQKSDTSPKRWIYDTSKLASGVPARFSGSGSGTSYSLTISSMEAEDAATYYCQQWSSNPPTFGAGTKLELK :: 1.04 relative to IgG4
anti-Mac-1 antibody clone 24G05 (antibody, human IgG4, V domains shown) VH: EVQLVESGGGLVQPGGSLRLSCAASGFTFTSYWMTWVRQAPGKGLEWVSTIVGGGGEADYADSVKGRFTISRDNSKNTLYLQMNSLRAEDTAVYYCARDYVADNHGAMDYWGQGTLVTVSS VL: DIQMTQSPSSLSASVGDRVTITCRASQGLSSYLNWYQQKPGKAPKLLIYGMSTLQSGVPSRFSGSGSGTDFTLTISSLQPEDFATYYCMQYYHWPYTFGQGTKVEIK :: 2.22 relative to IgG4

Form field: reported KIM127 (Expression relative to IgG4) of anti-Mac-1 antibody clone H4L2 (antibody, human IgG4, V domains shown) VH: QVQLVQSGAEVKKPGASVKVSCKASGYTFTNYWINWVRQAPGQRLEWMGNIYPSDTYINHNQKFKDRVTITRDTSASTAYMELSSLRSEDTAVYYCARSAYANYFDYWGQGTLVTVSS VL: EIVMTQSPATLSVSPGERATLSCRASQNIGTSIHWYQQKPGQAPRLLIYYASESISGIPARFSGSGSGTEFTLTISSLQSEDFAVYYCQQSDSWPTLTFGQGTKLEIK
1.11 relative to IgG4

Also check anti-Mac-1 antibody clone 28E07 (antibody, human IgG4, V domains shown) VH: QVQLQQSGPELVKPGASVKISCKASGYSFTDYNMNWVKQSNGKSLEWIGEINPGYGTSRYNQKFKDKATLTVDQSSTTAYMQLNSLTSEDSAVYYCARADVDYGDVMDYWGQGTTVTVSS VL: DIELTQSPAIMSASPGEKVTMTCSASSSVSYMHWYQQKSGTSPKRWIYDTSKLASGVPTRFSGSGSGTSYSLTISSMEAEDAATYYCQQWSSNPPTFGAGTKLELK
0.98 relative to IgG4

One more binder: anti-Mac-1 antibody clone 28E07-HH (antibody, human IgG4, V domains shown) VH: QVQLVQSGAEVKKPGASVKVSCKASGYSFTDYNMNWVRQAPGQGLEWMGEINPGYGTSRYNQKFKDRVTMTRDTSISTAYMELSRLRSDDTAVYYCARADVDYGDVMDYWGQGTLVTVSS VL: EIVLTQSPATLSLSPGERATLSCSASSSVSYMHWYQQKPGQAPRLLIYDTSKLASGIPARFSGSGSGTDFTLTISSLEPEDFAVYYCQQWSSNPPTFGQGTKLEIK
0.9 relative to IgG4
